Can you tell me IC50 for the items I'm about to list?
- Test system: IL-1β production in PMA-differentiated THP-1 cells
- Experiment Notes: IL-1β production in PMA-differentiated THP-1 cells stimulated with gramicidin (hTHP-1 assay containing 2% fetal bovine serum)
- Type: cell-based, human
- Condition: Homo sapiens, THP-1, Table B1; 2% fetal bovine serum; class symbols; read-out: hTHP-1 IC50 (Average IC50 of compounds in hTHP-1 assay)

Below, each entry is followed by its recorded IC50 result.
[
  {
    "Compound": "CC(C)c1cc(C#CC2CCCCC2)cc(C(C)C)c1CC(=O)N=S(N)(=O)c1cc(C(C)(C)O)n(-c2ccccc2)n1 (single isomer, unassigned) [Example 279]",
    "Reported Measurement": "1 to 5 µM"
  },
  {
    "Compound": "CC(C)c1cc2c(c(C(C)C)c1CC(=O)N=S(=O)(NC#N)c1cc(C(C)(C)O)cs1)COC2 (stereo in doubt) [Example 343]",
    "Reported Measurement": "5 to 30 µM"
  },
  {
    "Compound": "CC(C)c1cc(F)cc(C(C)C)c1CC(=O)N=S(N)(=O)c1ncc(C(C)(C)O)s1 (stereo not drawn)",
    "Reported Measurement": "0.2 to 1 µM"
  },
  {
    "Compound": "CNCc1ccc(S(N)(=O)=NC(=O)Cc2c(C(C)C)cc(C(F)F)nc2C(C)C)cc1 (stereo not drawn) [Example 254]",
    "Reported Measurement": "5 to 30 µM"
  },
  {
    "Compound": "CC(C)c1ccc(C#N)c(C(C)C)c1CC(=O)N=S(N)(=O)c1nc(C(C)(C)O)cs1 (stereo not drawn)",
    "Reported Measurement": "0.2 to 1 µM"
  },
  {
    "Compound": "CC(C)c1cc(C#N)c(F)c(C(C)C)c1CC(=O)N=S(N)(=O)c1cc(C(C)(C)O)n(-c2ccccc2)n1 (stereo not drawn)",
    "Reported Measurement": "1 to 5 µM"
  },
  {
    "Compound": "CC(C)c1cc(CCC2CCCCC2)cc(C(C)C)c1CC(=O)N=S(N)(=O)c1cc(C(C)(C)O)n(-c2ccccc2)n1 (single isomer, unassigned) [Example 281]",
    "Reported Measurement": "5 to 30 µM"
  },
  {
    "Compound": "CC(C)c1cc(F)cc(C(C)C)c1CC(=O)NS(=N)(=O)c1ncc(C(C)(C)O)s1 (single isomer, unassigned) [Example 9]",
    "Reported Measurement": "0.2 to 1 µM"
  }
]

// input: 8 compounds below; output: IC50 for each
1. CC(C)c1cc2c(c(C(C)C)c1CC(=O)N=S(N)(=O)c1ccn(C(F)F)n1)COC2 (single isomer, unassigned) [Example 319]
2. CC(C)c1cc(C#N)c(F)c(C(C)C)c1CC(=O)N=S(N)(=O)c1cnc(C(C)(O)CO)s1 (stereo not drawn)
3. CCc1c2c(cc(C(C)C)c1CC(=O)N=S(N)(=O)c1cnc(C(C)(C)O)s1)COC2 (single isomer, unassigned) [Example 289]
4. CC(C)c1cc(C(F)F)cc(C(C)C)c1CC(=O)N=S(N)(=O)c1ccc(CN(C)C)nc1 (stereo not drawn) [Example 230]
5. CC(C)c1cc(C(F)F)nc(C(C)C)c1CC(=O)N=S(N)(=O)c1sc(CN(C)C)cc1F (stereo not drawn) [Example 248]
6. CC(C)c1cc(C(F)F)cc(C(C)C)c1CC(=O)N=S(N)(=O)c1ccc(CN(C)C)nc1 (single isomer, unassigned) [Example 328]
7. CC(C)c1cc(COC2CCCC2)cc(C(C)C)c1CC(=O)N=S(N)(=O)c1cc(C(C)(C)O)n(-c2ccc(F)cc2)n1 (single isomer, unassigned) [Example 283]
8. CC(C)c1cc(-c2ccc3ccccc3c2)cc(C(C)C)c1CC(=O)N=[S@](=O)(NC#N)c1cnc(C(C)(C)O)s1

Data returned:
1: 5 to 30 µM; 2: 1 to 5 µM; 3: 5 to 30 µM; 4: 1 to 5 µM; 5: 1 to 5 µM; 6: 1 to 5 µM; 7: 0.2 to 1 µM; 8: 5 to 30 µM

// input: 3 compounds below; output: IC50 for each
1. CC(C)c1cc(C#CC2CCCC2)cc(C(C)C)c1CC(=O)N=S(N)(=O)c1cc(C(C)(C)O)c(-c2ccccc2)s1 (stereo not drawn)
2. CC(C)c1cc(C#CC2CCCCC2)cc(C(C)C)c1CC(=O)N=S(N)(=O)c1cc(C(C)(C)O)n(-c2ccccc2)n1 (stereo not drawn) [Example 226]
3. CC(C)c1cc2c(c(C(C)C)c1CC(=O)N=S(N)(=O)c1cnc(C(C)(C)O)s1)CCC2 (stereo not drawn) [Example 142]

Data returned:
5 to 30 µM
1 to 5 µM
1 to 5 µM

// input: 8 compounds below; output: IC50 for each
1. CC(C)c1nc(C(F)(F)F)nc(C(C)C)c1CC(=O)N=S(N)(=O)c1cnc(C(C)(C)O)s1 (stereo not drawn)
2. CC(C)c1cc(F)cc(C(C)C)c1CC(=O)NS(=N)(=O)c1ncc(C(C)(C)O)s1 (stereo not drawn) [Example 8]
3. CC(C)c1cc2c(c(C(C)C)c1CC(=O)N=S(N)(=O)c1ccc(C(C)(C)O)cc1)COC2 (single isomer, unassigned)
4. CC(C)c1cc(-c2ccc3c(c2)CCOC3)cc(C(C)C)c1CC(=O)N=S(N)(=O)c1cnc(C(C)(O)CO)s1 (stereo not drawn)
5. CC(C)c1cnc(F)c(C(C)C)c1CC(=O)N=S(N)(=O)c1cnc(C(C)(C)O)s1 (stereo not drawn) [Example 154]
6. CC(C)c1cc(F)cc(C(C)C)c1CC(=O)N=[S@@](=O)(NC#N)c1ncc(C(C)(C)O)s1
7. CCc1c2c(cc(C(C)C)c1CC(=O)N=S(N)(=O)c1cnc(C(C)(C)O)s1)COC2 (stereo not drawn) [Example 259]
8. COCc1cc(C(C)C)c(CC(=O)N=S(N)(=O)c2ncc(C(C)(C)O)s2)c(C(C)C)n1 (stereo not drawn) [Example 236]

Data returned:
1: 1 to 5 µM; 2: 1 to 5 µM; 3: 1 to 5 µM; 4: 1 to 5 µM; 5: 5 to 30 µM; 6: 1 to 5 µM; 7: 5 to 30 µM; 8: 1 to 5 µM
